Origin of values: patent US20100280227A1

Readings of IC50 for the listed binders
Target: T1, human BR3 expressed on cells (human, UniProt Q96RJ3 1-184)
T1 construct: whole, on cells; also called BR3 on BJAB cells; cell surface BR3
Assay: BJAB cells, competition with biotin-BAFF
Give the quantity in nM, number only.

Query string: Tell me measured IC50 for Hu2.1-94 IgG (antibody, V domains shown, humanized IgG; also called h2.1-94) VH: EVQLVESGGGLVQPGGSLRLSCAASGDSITRGYWNWVRQAPGKGLEWVGYINYSGTTYYNPSLKSRFTISRDTSKNTLYLQMNSLRAEDTAVYYCATSHNTGEMDYWGQGTLVTVSS VL: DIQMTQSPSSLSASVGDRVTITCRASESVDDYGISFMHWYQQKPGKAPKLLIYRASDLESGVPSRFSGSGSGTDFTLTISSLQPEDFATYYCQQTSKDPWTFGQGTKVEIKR please.
Result string: 5.1

Query string: Tell me measured IC50 for h9.1-70 IgG (antibody, V domains shown) VH: EVQLVESGGGLVQPGGSLRLSCAASDSPRSGYYISWVRQAPGKGLEWVGFIRDKANGYTTEYNPSVKGRFTISADTSKNTAYLQMNSLRAEDTAVYYCAQVRRALDYWGQGTLVTVSS VL: DIQMTQSPSSLSASVGDRVTITCKSSQSLLYSSNQNNYLAWYQQKPGKAPKLLIYWASIRDSGVPSRFSGSGSGTDFTLTISSLQPEDFATYYCQQYYTYPYTFGQGTKVEIKR please.
Result string: 0.82

Query string: Tell me measured IC50 for Hu2.1-30 IgG (antibody, V domains shown, humanized IgG; also called h2.1-30) VH: EVQLVESGGGLVQPGGSLRLSCAASGDSITRGYWNWVRQAPGKGLEWVGYINYSGTTYYNPSLKSRFTISRDTSKNTFYLQMNSLRAEDTAVYYCANLNYYGAMDYWGQGTLVTVSS VL: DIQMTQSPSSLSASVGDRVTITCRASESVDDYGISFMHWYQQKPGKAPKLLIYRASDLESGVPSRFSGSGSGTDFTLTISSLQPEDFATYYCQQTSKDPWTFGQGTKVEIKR please.
Result string: 0.17
